Reported viability at 48 h, 10 µM values are given for each entry in this list.
assay: in vitro; parameters: species or system HB2, HEK293; details: human, ccd841 cells
Respond with the bare value in %.

Some compounds with recorded viability at 48 h, 10 µM:
> print(dat)
                                   compound  recorded.value
1    O=C(CCl)NC(=O)NCC(F)(F)F [PCM-0103037]            78.2
2  C=CC(=O)N1CCCC(c2nc(C(F)(F)F)cn2C)C1 (stereo not shown) [PCM-0102633]             118
3  O=C(CCl)N1CCN(S(=O)(=O)c2ccc(Cl)s2)CC1 [PCM-0102121]            20.6
4  C=CC(=O)N(C)CC(=O)N1c2ccccc2NC(=O)CC1C (stereo not shown) [PCM-0102729]             107

q: Please give the measured viability at 48 h, 10 µM for this compound: CN1C(=O)c2ccc(NC(=O)CCl)cc2C1=O [PCM-0102309]
a: 61.2

q: Any idea what viability at 48 h, 10 µM was measured for C=CC(=O)N1Cc2ccccc2CC1c1nnc(CC)o1 (stereo not shown) [PCM-0103005] ?
a: 79.4

q: Requested read-out: viability at 48 h, 10 µM. Entry: C=CC(=O)NC1CC(C)(C)OC1(C)C (stereo not shown) [PCM-0102562]
a: 114

====

experiment: in vitro; parameters: species or system HB2, CCD841; details: human, hek293 cells
readout: viability at 48 h, 10 µM (%)
Answer format: numeric, % implied, no suffix.

# annotated cases, reported viability at 48 h, 10 µM shown
> print(dat)
                                   compound  recorded.value
1  C=CC(=O)N1CC2CC3CC2C1C3OC (centres unmarked)             117
2                   N#CCN(C(=O)CCl)c1ccccc1              16
3          O=C(CCl)N1CCN(C(=O)Nc2ccccc2)CC1             8.5
4  C=CC(=O)NC1CCN(c2ccccc2C(F)(F)F)C1 (centres unmarked)            69.7
5             C=CC(=O)N1CCC2(CCN(C)C2=O)CC1            85.3

q: Quick check: viability at 48 h, 10 µM of C=CC(=O)N1CCCc2c([nH]c3c(F)cccc23)C1 ?
a: 96

q: Look at this compound and give its reported viability at 48 h, 10 µM. O=C(CCl)Nc1ccccc1N1CCCC1=O
a: 51.9

q: # viability at 48 h, 10 µM lookup, item CNC(=O)NC(=O)CCl
a: 92.2

q: Tell me the measured viability at 48 h, 10 µM of O=C(CCl)NC(=O)C1COc2ccccc2O1 (centres unmarked) , please.
a: 99.1

q: Item O=C(CCl)NCC#Cc1ccccc1 has what recorded viability at 48 h, 10 µM?
a: 59.4

q: Name the reported viability at 48 h, 10 µM value associated with the compound C=CC(=O)NCc1cc(F)c(C(F)(F)F)cc1F
a: 88.4

====

assay: in vitro; design: species or system HB2, CCD841; conditions: human, hek293 cells
readout: viability at 48 h, 10 µM (%)
A number alone suffices; assume %.

> print(dat)
                                   compound  quantity.unit  recorded.value
1  C=CC(=O)N1CCN(C2CCCN(C3CCOCC3)C2=O)CC1 (centres unmarked) [PCM-0102886]              %             104

q: So what's the measured viability at 48 h, 10 µM for this one? C=CC(=O)N1CCCC(Cc2nnc3ccccn23)C1 (centres unmarked) [PCM-0102909]
a: 108

q: Fill blank: measured viability at 48 h, 10 µM of the compound C=CC(=O)NCC1(O)CCS(=O)(=O)CC1 [PCM-0102691] is ____.
a: 103

q: Please give the measured viability at 48 h, 10 µM for this compound: CN(C)c1ccc(NC(=O)CCl)cc1.Cl [PCM-0102859]
a: 87

q: Requested field: viability at 48 h, 10 µM. Item: CC1CCCCN1C(=O)CCl (centres unmarked) [PCM-0102434]
a: 71.3

q: What value of measured viability at 48 h, 10 µM is listed for C=CC(=O)N1CCCN(c2ccc(-c3ccccc3)nn2)CC1 [PCM-0102964] ?
a: 87.2

q: Find the recorded viability at 48 h, 10 µM belonging to C=CC(=O)N1CCOCC1c1cccn1C (centres unmarked) [PCM-0102721] and report it.
a: 97.2

q: Could you tell me which viability at 48 h, 10 µM is on file for O=C(CCl)Nc1ccnn1C1CCCC1 [PCM-0102336] ?
a: 7.7

q: If you can, please state the reported viability at 48 h, 10 µM value of O=C(CCl)Nc1nnc(CC(F)(F)F)o1 [PCM-0102779] .
a: 102

q: What measured viability at 48 h, 10 µM goes with C=CC(=O)N1CC(c2ccccc2)C2COCCC21 (centres unmarked) [PCM-0102687] ?
a: 114

q: Which viability at 48 h, 10 µM is reported for this compound? C=CC(=O)N1CCCC(CC(=O)OC(C)(C)C)CC1 (centres unmarked) [PCM-0102609]
a: 90.6

q: // returns reported viability at 48 h, 10 µM for input C=CC(=O)NC1CCCn2nc(C)nc21 (centres unmarked) [PCM-0103083]
a: 115

q: Fill in: viability at 48 h, 10 µM of C=CC(=O)N1CCC(C(=O)Nc2cc(C)on2)CC1 [PCM-0102477] is ___
a: 86.9

q: Name the recorded viability at 48 h, 10 µM for C=CC(=O)N1CCC(Oc2cnc3ccccc3n2)CC1 [PCM-0102925] .
a: 86.8

q: Find the recorded viability at 48 h, 10 µM belonging to C=CC(=O)NC1CCN(C(C)=O)Cc2cc(F)ccc21 (centres unmarked) [PCM-0102635] and report it.
a: 91.8

q: viability at 48 h, 10 µM for CS(=O)(=O)c1ccccc1NC(=O)CCl [PCM-0102141] ?
a: 96.8

q: Entry COC(=O)NC(=O)CCl [PCM-0102791] : reported viability at 48 h, 10 µM = ?
a: 94.3
